# key: entry, value: inhibition (Mean)
Molecular target: acetylcholinesterase (from human erythrocytes) (Homo sapiens, UniProt P22303)
Construct: acetylcholinesterase (from human erythrocytes, purchased from Sigma-Aldrich, Seoul, Korea); purchased Sigma-Aldrich, Seoul, Korea; host or cells: human erythrocytes (natural source)
Sequence (P22303 32-617 isoform P22303-2 limits assumed): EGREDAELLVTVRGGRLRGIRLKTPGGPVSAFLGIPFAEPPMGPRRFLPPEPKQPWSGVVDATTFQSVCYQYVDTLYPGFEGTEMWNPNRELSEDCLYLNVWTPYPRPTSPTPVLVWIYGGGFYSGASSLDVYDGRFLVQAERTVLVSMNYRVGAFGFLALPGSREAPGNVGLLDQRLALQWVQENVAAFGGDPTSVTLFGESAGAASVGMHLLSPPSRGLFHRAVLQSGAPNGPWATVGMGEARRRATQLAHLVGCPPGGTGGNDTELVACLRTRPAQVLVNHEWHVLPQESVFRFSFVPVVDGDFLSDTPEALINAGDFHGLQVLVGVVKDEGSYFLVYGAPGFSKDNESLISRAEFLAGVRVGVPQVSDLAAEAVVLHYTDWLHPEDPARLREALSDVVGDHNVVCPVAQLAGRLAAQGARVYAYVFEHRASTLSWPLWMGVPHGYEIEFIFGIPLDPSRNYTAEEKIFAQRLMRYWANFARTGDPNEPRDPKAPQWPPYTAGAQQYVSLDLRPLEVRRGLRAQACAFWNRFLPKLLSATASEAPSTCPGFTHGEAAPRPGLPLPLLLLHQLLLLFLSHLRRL
Assay: biochemical
Conditions: Conc: 0.122549 (unit not given); mean of three; Raw Data of IC50 sheet
experimental readout: inhibition (Mean)

[[record]]
item_smiles = "COc1ccc(CCN(CCCc2ccccc2)S(=O)(=O)c2ccc(C)cc2)cc1"
readout_value = 32.8451

[[record]]
item_smiles = "COc1ccc(CCN(Cc2ccc(C)cc2)S(=O)(=O)c2ccc(C)cc2)cc1"
readout_value = 36.7468

[[record]]
item_smiles = "COc1ccc(CCN(Cc2ccccc2C)S(=O)(=O)c2ccc(C)cc2)cc1"
readout_value = 51.0341

[[record]]
item_smiles = "COc1ccc(CCN(Cc2cccc(C)c2)S(=O)(=O)c2ccc(C)cc2)cc1"
readout_value = 56.078


---

Molecular target: acetylcholinesterase (from human erythrocytes) (Homo sapiens, UniProt P22303)
Construct: acetylcholinesterase (from human erythrocytes, purchased from Sigma-Aldrich, Seoul, Korea); purchased Sigma-Aldrich, Seoul, Korea; host or cells: human erythrocytes (natural source)
Test: biochemical
Settings: Concentration 0.122549 (unit not given); IC50 Raw Data sheet
Reported % inhibition values for the following molecules.
experimental readout: % inhibition (%)

[[record]]
item_smiles = "COc1ccc(CCN(Cc2ccc(C)cc2)S(=O)(=O)c2ccc(C)cc2)cc1"
unit_symbol = "%"
readout_value = 36.3541

[[record]]
item_smiles = "COc1ccc(CCN(Cc2ccccc2C)S(=O)(=O)c2ccc(C)cc2)cc1"
unit_symbol = "%"
readout_value = 51.0699

[[record]]
item_smiles = "COc1ccc(CCN(CCCc2ccccc2)S(=O)(=O)c2ccc(C)cc2)cc1"
unit_symbol = "%"
readout_value = 29.1886

[[record]]
item_smiles = "COc1ccc(CCN(Cc2cccc(C)c2)S(=O)(=O)c2ccc(C)cc2)cc1"
unit_symbol = "%"
readout_value = 55.1106


---

Target: acetylcholinesterase (from human erythrocytes) (Homo sapiens, UniProt P22303)
Construct: acetylcholinesterase (from human erythrocytes, purchased from Sigma-Aldrich, Seoul, Korea); purchased Sigma-Aldrich, Seoul, Korea; host or cells: human erythrocytes (natural source)
Test: biochemical
Details: mean of three experiments; Raw Data of IC50 sheet
experimental readout: IC50 (Mean) (µg/mL)

[[record]]
item_smiles = "COc1ccc(CCN(Cc2ccccc2C)S(=O)(=O)c2ccc(C)cc2)cc1"
unit_symbol = "µg/mL"
readout_value = 0.414

[[record]]
item_smiles = "COc1ccc(CCN(CCCc2ccccc2)S(=O)(=O)c2ccc(C)cc2)cc1"
unit_symbol = "µg/mL"
readout_value = 0.338

[[record]]
item_smiles = "COc1ccc(CCN(Cc2ccc(C)cc2)S(=O)(=O)c2ccc(C)cc2)cc1"
unit_symbol = "µg/mL"
readout_value = 0.4537

[[record]]
item_smiles = "COc1ccc(CCN(Cc2cccc(C)c2)S(=O)(=O)c2ccc(C)cc2)cc1"
unit_symbol = "µg/mL"
readout_value = 0.1923


---

Molecular target: acetylcholinesterase (from human erythrocytes) (Homo sapiens, UniProt P22303)
Construct: acetylcholinesterase (from human erythrocytes, purchased from Sigma-Aldrich, Seoul, Korea); purchased Sigma-Aldrich, Seoul, Korea; host or cells: human erythrocytes (natural source)
Assay: biochemical
Settings: mean of three experiments; Raw Data of IC50 sheet; read-out: IC50 (Mean) (converted)
Recorded IC50, one value per entry.
experimental readout: IC50 (nM)

[[record]]
item_smiles = "COc1ccc(CCN(C(C)C)S(=O)(=O)c2ccc(C)cc2)cc1"
experimental_readout = "IC50"
unit_symbol = "nM"
readout_value = 75.1

[[record]]
item_smiles = "CCCN(CCc1ccc(OC)cc1)S(=O)(=O)c1ccc(C)cc1"
experimental_readout = "IC50"
unit_symbol = "nM"
readout_value = 4160

[[record]]
item_smiles = "CCCCCN(CCc1ccc(OC)cc1)S(=O)(=O)c1ccc(C)cc1"
experimental_readout = "IC50"
unit_symbol = "nM"
readout_value = 398

[[record]]
item_smiles = "CCCCCCCN(CCc1ccc(OC)cc1)S(=O)(=O)c1ccc(C)cc1"
experimental_readout = "IC50"
unit_symbol = "nM"
readout_value = 444

[[record]]
item_smiles = "CCCCN(CCc1ccc(OC)cc1)S(=O)(=O)c1ccc(C)cc1"
experimental_readout = "IC50"
unit_symbol = "nM"
readout_value = 120

[[record]]
item_smiles = "CCN(CCc1ccc(OC)cc1)S(=O)(=O)c1ccc(C)cc1"
experimental_readout = "IC50"
unit_symbol = "nM"
readout_value = 22500


---

Target: acetylcholinesterase (from human erythrocytes) (Homo sapiens)
Construct: acetylcholinesterase (from human erythrocytes, purchased from Sigma-Aldrich, Seoul, Korea); purchased Sigma-Aldrich, Seoul, Korea; host or cells: human erythrocytes (natural source)
Assay: biochemical
Conditions: mean converted to uM; Raw Data of IC50 sheet; read-out: IC50
# log10 of IC50 annotations
experimental readout: log10 of IC50 (log10 of the value in µM)

[[record]]
item_smiles = "COc1ccc(CCN(Cc2ccc(C)cc2)S(=O)(=O)c2ccc(C)cc2)cc1"
experimental_readout = "log10 of IC50"
readout_value = 0.05

[[record]]
item_smiles = "COc1ccc(CCN(Cc2ccccc2C)S(=O)(=O)c2ccc(C)cc2)cc1"
experimental_readout = "log10 of IC50"
readout_value = 0.00

[[record]]
item_smiles = "CCCCCN(CCc1ccc(OC)cc1)S(=O)(=O)c1ccc(C)cc1"
experimental_readout = "log10 of IC50"
readout_value = -0.40

[[record]]
item_smiles = "COc1ccc(CCN(CCCc2ccccc2)S(=O)(=O)c2ccc(C)cc2)cc1"
experimental_readout = "log10 of IC50"
readout_value = -0.10

[[record]]
item_smiles = "CCCCN(CCc1ccc(OC)cc1)S(=O)(=O)c1ccc(C)cc1"
experimental_readout = "log10 of IC50"
readout_value = -0.92

[[record]]
item_smiles = "CCCN(CCc1ccc(OC)cc1)S(=O)(=O)c1ccc(C)cc1"
experimental_readout = "log10 of IC50"
readout_value = 0.62

[[record]]
item_smiles = "CCCCCCCN(CCc1ccc(OC)cc1)S(=O)(=O)c1ccc(C)cc1"
experimental_readout = "log10 of IC50"
readout_value = -0.35

[[record]]
item_smiles = "CCN(CCc1ccc(OC)cc1)S(=O)(=O)c1ccc(C)cc1"
experimental_readout = "log10 of IC50"
readout_value = 1.35

[[record]]
item_smiles = "COc1ccc(CCN(Cc2cccc(C)c2)S(=O)(=O)c2ccc(C)cc2)cc1"
experimental_readout = "log10 of IC50"
readout_value = -0.33

[[record]]
item_smiles = "COc1ccc(CCN(C(C)C)S(=O)(=O)c2ccc(C)cc2)cc1"
experimental_readout = "log10 of IC50"
readout_value = -1.12


---

Molecular target: acetylcholinesterase (from human erythrocytes) (Homo sapiens, UniProt P22303)
Construct: acetylcholinesterase (from human erythrocytes, purchased from Sigma-Aldrich, Seoul, Korea); purchased Sigma-Aldrich, Seoul, Korea; host or cells: human erythrocytes (natural source)
Assay: biochemical
Conditions: Conc: 0.0306373 (unit not given); mean of three; Raw Data of IC50 sheet
experimental readout: inhibition (Mean)

[[record]]
molecule = "COc1ccc(CCN(Cc2ccc(C)cc2)S(=O)(=O)c2ccc(C)cc2)cc1 [Compound 5j]"
experimental_readout = "inhibition (Mean)"
readout_value = 17.3151

[[record]]
molecule = "COc1ccc(CCN(CCCc2ccccc2)S(=O)(=O)c2ccc(C)cc2)cc1 [Compound 5g]"
experimental_readout = "inhibition (Mean)"
readout_value = 16.1834

[[record]]
molecule = "COc1ccc(CCN(Cc2ccccc2C)S(=O)(=O)c2ccc(C)cc2)cc1 [Compound 5h]"
experimental_readout = "inhibition (Mean)"
readout_value = 40.984

[[record]]
molecule = "COc1ccc(CCN(Cc2cccc(C)c2)S(=O)(=O)c2ccc(C)cc2)cc1 [Compound 5i]"
experimental_readout = "inhibition (Mean)"
readout_value = 38.1601


---

Quick reference for % inhibition among some compounds
Target: acetylcholinesterase (from human erythrocytes) (Homo sapiens)
Construct: acetylcholinesterase (from human erythrocytes, purchased from Sigma-Aldrich, Seoul, Korea); purchased Sigma-Aldrich, Seoul, Korea; host or cells: human erythrocytes (natural source)
Test: biochemical
Conditions: Concentration 1.96078 (unit not given); IC50 Raw Data sheet
experimental readout: % inhibition (%)

[[record]]
item_smiles = "COc1ccc(CCN(Cc2cccc(C)c2)S(=O)(=O)c2ccc(C)cc2)cc1"
tested_target = "acetylcholinesterase (from human erythrocytes) (Homo sapiens)"
readout_value = 87.3169

[[record]]
item_smiles = "COc1ccc(CCN(Cc2ccc(C)cc2)S(=O)(=O)c2ccc(C)cc2)cc1"
tested_target = "acetylcholinesterase (from human erythrocytes) (Homo sapiens)"
readout_value = 65.4657

[[record]]
item_smiles = "COc1ccc(CCN(Cc2ccccc2C)S(=O)(=O)c2ccc(C)cc2)cc1"
tested_target = "acetylcholinesterase (from human erythrocytes) (Homo sapiens)"
readout_value = 85.3837

[[record]]
item_smiles = "COc1ccc(CCN(CCCc2ccccc2)S(=O)(=O)c2ccc(C)cc2)cc1"
tested_target = "acetylcholinesterase (from human erythrocytes) (Homo sapiens)"
readout_value = 66.4906

